assay: β-Lactam stability in rat plasma; assay type: in vitro ADME; settings: normal rat plasma, room temperature; read-out: Rat Plasma Stability (T1/2; min)
Would you mind telling me the reported half-life of each entry?

Return half-life (reported value) for this molecule: C[C@@H](NC(=O)N1C(=O)[C@H](Cc2ccnc(N)c2)[C@H]1C(=O)O)C1CCCCCCC1 [Example 104]
> 1.67 h

Please indicate half-life recorded for C[C@@H](NC(=O)N1C(=O)[C@H](Cc2ccnc(N)c2)[C@H]1C(=O)O)c1ccc(F)c(F)c1 [Example 68]
> 1.67 h

Check the records and state half-life for CCC[C@@H](NC(=O)N1C(=O)[C@H](Cc2ccnc(N)c2)[C@H]1C(=O)O)c1ccc2c(c1)OC(F)(F)O2 [Example 89]
> 1.67 h

These data points were gathered from patent US11198673B2.
